Each entry below carries its reported melting point.

COc1ccc2sc(SCC(=O)NN=Cc3ccc(C)o3)nc2c1 [Compound 3g] :: 145.3 to 146.7 °C
COc1ccc2sc(SCC(=O)NN=Cc3cccnc3)nc2c1 [Compound 3i] :: 177.5 to 179.3 °C
COc1ccc2sc(SCC(=O)NN=Cc3ccc(Br)s3)nc2c1 [Compound 3d] :: 188.3 to 190.4 °C
COc1ccc2sc(SCC(=O)NN=Cc3sccc3C)nc2c1 [Compound 3b] :: 162.9 to 164.4 °C
COc1ccc2sc(SCC(=O)NN=Cc3ccc([N+](=O)[O-])s3)nc2c1 [Compound 3e] :: 177.2 to 178.6 °C
COc1ccc2sc(SCC(=O)NN=Cc3ccc(C)s3)nc2c1 [Compound 3c] :: 149.6 to 152.3 °C
COc1ccc2sc(SCC(=O)NN=Cc3ccncc3)nc2c1 [Compound 3j] :: 159.8 to 161.4 °C
COc1ccc2sc(SCC(=O)NN=Cc3ccc([N+](=O)[O-])o3)nc2c1 [Compound 3h] :: 168.9 to 170.7 °C

GET /values?readout=melting point&item= COc1ccc2sc(SCC(=O)NN=Cc3cccs3)nc2c1 [Compound 3a] 163.7 to 165.3 °C

GET /values?readout=melting point&item= COc1ccc2sc(SCC(=O)NN=Cc3ccco3)nc2c1 [Compound 3f] 146.1 to 147.9 °C

----------
target.system: hMAO-A (Homo sapiens)
Sequence (P21397 whole entry): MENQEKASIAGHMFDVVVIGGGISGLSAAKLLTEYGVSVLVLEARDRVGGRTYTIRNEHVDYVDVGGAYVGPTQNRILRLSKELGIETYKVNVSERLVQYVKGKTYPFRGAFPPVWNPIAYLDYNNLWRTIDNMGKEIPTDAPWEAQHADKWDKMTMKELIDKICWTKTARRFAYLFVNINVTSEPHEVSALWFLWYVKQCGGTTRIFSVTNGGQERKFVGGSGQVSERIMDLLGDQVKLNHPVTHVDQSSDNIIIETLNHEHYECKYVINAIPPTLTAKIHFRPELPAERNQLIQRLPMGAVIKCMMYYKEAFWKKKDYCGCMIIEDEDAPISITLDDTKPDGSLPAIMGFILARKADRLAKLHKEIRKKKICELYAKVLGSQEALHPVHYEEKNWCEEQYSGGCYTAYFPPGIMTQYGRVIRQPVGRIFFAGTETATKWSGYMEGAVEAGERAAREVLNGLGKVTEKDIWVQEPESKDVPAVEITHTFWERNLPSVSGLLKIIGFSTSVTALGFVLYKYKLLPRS
protocol: in vitro fluorometric hMAO-A inhibition assay (Amplex Red)
Type: biochemical
experimental.parameters: 10^−3 M; read-out: MAO A Inhibition %
readout.type: inhibition at 1000 µM (%)

The examples below pair each entry with its known result.
COc1ccc2sc(SCC(=O)NN=Cc3ccc(C)o3)nc2c1 :: 16.7
COc1ccc2sc(SCC(=O)NN=Cc3ccncc3)nc2c1 :: 22.1

P: COc1ccc2sc(SCC(=O)NN=Cc3ccc([N+](=O)[O-])o3)nc2c1
Q: O=C(NCCN1CCOCC1)c1ccc(Cl)cc1 [Moclobemide, reference compound]
R: COc1ccc2sc(SCC(=O)NN=Cc3ccc(C)s3)nc2c1
List these items ordered by inhibition at 1000 µM, big to small. # list labels per requested ordering Q, P, R

a: COc1ccc2sc(SCC(=O)NN=Cc3ccc(Br)s3)nc2c1
b: COc1ccc2sc(SCC(=O)NN=Cc3sccc3C)nc2c1
Of a and b , which one carries the higher reported inhibition at 1000 µM? Select an item and report its label. b
(b: 30.1%, a: 18.9%)

----------
target.system: hMAO-A (Homo sapiens)
protocol: in vitro fluorometric hMAO-A inhibition assay (Amplex Red)
Format: biochemical
experimental.parameters: 10^−3 M; read-out: MAO A Inhibition %
Procedure: The in vitro fluorometric enzymatic assay, allowing to sensitively detect monoamine oxidase activity, was applied to investigate hMAO-A and hMAO-B inhibitory potential of compounds 3a–3j. The method was performed in two steps, as previously described. […] The IC50 values were calculated from a dose-response curve obtained by plotting the percentage inhibition versus the log concentration with the use of GraphPad PRISM software (version 5.0, GraphPad Software Inc., La Jolla, CA, USA).
readout.type: inhibition at 1000 µM (%)

COc1ccc2sc(SCC(=O)NN=Cc3cccnc3)nc2c1 :: 19.9
COc1ccc2sc(SCC(=O)NN=Cc3ccco3)nc2c1 :: 30.8
COc1ccc2sc(SCC(=O)NN=Cc3ccc([N+](=O)[O-])s3)nc2c1 :: 22.1
COc1ccc2sc(SCC(=O)NN=Cc3cccs3)nc2c1 :: 25

Sourced from paper PMC6149824
